The entries below are paired with their reported EC50.
Molecular target: rat MrgD (Rattus norvegicus)
Sequence (Q7TN41 whole entry): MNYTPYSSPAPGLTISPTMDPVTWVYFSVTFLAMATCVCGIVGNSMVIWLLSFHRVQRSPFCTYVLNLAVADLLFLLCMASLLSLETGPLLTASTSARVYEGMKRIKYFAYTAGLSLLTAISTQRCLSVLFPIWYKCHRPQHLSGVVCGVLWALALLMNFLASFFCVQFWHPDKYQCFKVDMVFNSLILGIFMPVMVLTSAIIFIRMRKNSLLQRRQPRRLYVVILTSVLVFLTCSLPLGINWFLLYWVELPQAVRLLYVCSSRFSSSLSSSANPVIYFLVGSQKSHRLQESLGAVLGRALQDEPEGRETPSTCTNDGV
Experiment: Calcium mobilization FLIPR assay, agonist dose-response, CHO-DUKX cells expressing rat MrgD
Details: CHO-DUKX cells, FLIPR; Table 1: mean ± SD from 2–6 independent experiments

# compound, EC50
measured = [
    ("NCC(=O)O", "> 100 µM"),
]

Consider NCCCC(=O)O . Its measured EC50 is 49.8 µM

Record summary for NC1CCN(O)C1=O (racemic) [(±) HA 966] : reported EC50 = 13.2 µM

// sample CCCn1c(=O)c2[nH]c(-c3ccc(OCC(=O)NCCN)cc3)nc2n(CCC)c1=O , its EC50 was 48.3 µM

###

Target: MrgD (Homo sapiens, UniProt Q8TDS7)
Construct: expressed in transfected cells
Test: Calcium mobilization FLIPR assay, agonist dose-response, CHO-DUKX cells expressing human MrgD
Format: cell-based
Details: CHO-DUKX cells, FLIPR; Table 1: mean ± SD from 2–6 independent experiments; read-out: EC50 Human MrgD
Description: A Kozak sequence and HA epitope tag were incorporated in the forward primer. […] A Kozak sequence and c-Myc epitope tag were incorporated in the forward primer. […] Clones of human MrgD expressing cell lines were evaluated initially for MrgD transcript level by Taqman analysis and normalized against the house-keeping gene GAPDH (Glyceraldehyde-3-phosphate dehydrogenase). […]
Sequence (Q8TDS7 whole entry): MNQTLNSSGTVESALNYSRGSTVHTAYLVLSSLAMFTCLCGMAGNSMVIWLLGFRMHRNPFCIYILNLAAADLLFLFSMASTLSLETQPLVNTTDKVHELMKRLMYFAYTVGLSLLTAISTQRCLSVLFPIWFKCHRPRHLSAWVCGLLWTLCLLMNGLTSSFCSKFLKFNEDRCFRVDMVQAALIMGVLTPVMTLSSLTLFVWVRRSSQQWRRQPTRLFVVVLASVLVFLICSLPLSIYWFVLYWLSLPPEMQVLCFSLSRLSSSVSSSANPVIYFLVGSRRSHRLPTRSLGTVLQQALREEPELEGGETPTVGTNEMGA
quantityMeasured: pEC50
Lab note: report pEC50 as minus log10 of the concentration in molar units, number only.

# molecule, targetSystem, pEC50
rows = [
    ("NCCCC(=O)O [GABA, gamma-aminobutyric acid]", "MrgD (Homo sapiens, UniProt Q8TDS7)", 4.28),
]

Kindly review the next molecule as well.
NC1CCN(O)C1=O (racemic) [(±) HA 966] tested on MrgD (Homo sapiens, UniProt Q8TDS7) gave pEC50: 4.96

###

Biological target: MrgD (Homo sapiens, UniProt Q8TDS7)
Construct: expressed in transfected cells
Assay: FLIPR antagonist dose-response assay against beta-alanine
Format: cell-based
Conditions: beta-alanine 10 μM, ~30 min preincubation; unit inferred; read-out: IC50 as MrgD antagonist (dose response analysis)
Sequence (Q8TDS7 whole entry, species assumed): as the sequence (Q8TDS7 whole entry) above
Structures can show the parent of a compound that is named as a salt.
Listed next: entries and their corresponding pIC50.
Friendly reminder that pIC50 comes from taking -log10 of the concentration in mol/L.

# molecule, targetSystem, pIC50
measured = [
    ("CSc1ccc2c(c1)N(CCC1CCCCN1C)c1ccccc1S2 (centres unmarked) [thioridazine hydrochloride]", "MrgD (Homo sapiens, UniProt Q8TDS7)", 5.97),
]

// below: pIC50 requested for another molecule
Short answer for CCCN1CCc2cccc3c2[C@H]1Cc1ccc(O)c(O)c1-3.Cl [R(−)-Propylnorapomorphine hydrochloride] : pIC50 was 5.84

###

Target: MrgD (Homo sapiens, UniProt Q8TDS7)
Construct: expressed in transfected cells
Assay: Calcium mobilization FLIPR assay, agonist dose-response, CHO-DUKX cells expressing human MrgD
Type: cell-based
Conditions: result in words
quantityMeasured: FLIPR response in human MrgD expressing cells

# structureSmiles, observedValue
records = [
    ("NCC(=O)O", "not"),
]

###

# reported pEC50; entries follow
Target: MrgD (Homo sapiens, UniProt Q8TDS7)
Construct: expressed in transfected cells
Assay: Calcium mobilization FLIPR assay, agonist dose-response, CHO-DUKX cells expressing human MrgD
Assay type: cell-based
Conditions: HA 966 racemate and enantiomers; species not stated at place, racemate value equals human MrgD value of Table 2; read-out: EC50 as MrgD agonist (Figure 5(a))
# reply with the number alone; pEC50 is -log10 of concentration in mol/L

# compound, pEC50
rows = [
    ("NC1CCN(O)C1=O (single isomer, unassigned; (+)) [(+) HA 966]", 3.97),
]

Next:
Log: MrgD (Homo sapiens, UniProt Q8TDS7), compound NC1CCN(O)C1=O (single isomer, unassigned; (-)) [(−) HA 966] , pEC50 = 5.26
